The origin of these recorded values is patent US20210238298A1.

Molecular target: T1, OX40 chimera 1548: human OX40 with mouse module 3 and domains 4A and 4B (aa 108-167), on FreeStyle 293-F cells (human; mouse, UniProt P47741 104-165)
T1 construct: domain: module 3, 4A and 4B; Limits derived as for 1544
T1 sequence: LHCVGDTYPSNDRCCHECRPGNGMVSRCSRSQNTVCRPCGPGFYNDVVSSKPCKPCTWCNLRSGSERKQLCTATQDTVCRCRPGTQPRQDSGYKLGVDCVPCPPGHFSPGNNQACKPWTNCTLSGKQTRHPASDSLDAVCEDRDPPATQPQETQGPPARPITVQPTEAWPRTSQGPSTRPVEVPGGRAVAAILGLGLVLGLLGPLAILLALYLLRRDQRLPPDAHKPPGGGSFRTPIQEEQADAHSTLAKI
Experiment: flow cytometry, 293-F transfectants
Method: The mouse/human chimeras were transiently transfected into FreeStyle 293-F cells (Invitrogen), incubated 48 hours in FreeStyle 293 expression medium (Invitrogen) 37 C, 8% CO₂, 135 rpm. The transfected cells were incubated with human OX40 antibodies, human OX40L (hOX40L, RnD Systems), mouse OX40L (mOX40L, RnD Systems) and controls for 30 min 4° C. and then detected with a-huIgG-PE (Jackson Immunoresearch) 30 min 4° C. Cells were analyzed with FACS Verse (BD Biosciences). […]
Metric: relative MFI vs isotype control
Lab note: write the figure by itself, no unit.

Binder: anti-OX40 antibody 1526/1527 (antibody, V domains shown, Tested as IgG) VH: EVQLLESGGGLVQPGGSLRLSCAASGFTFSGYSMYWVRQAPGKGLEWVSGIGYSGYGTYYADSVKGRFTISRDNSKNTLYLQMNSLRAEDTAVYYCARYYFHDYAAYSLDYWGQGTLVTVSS VL: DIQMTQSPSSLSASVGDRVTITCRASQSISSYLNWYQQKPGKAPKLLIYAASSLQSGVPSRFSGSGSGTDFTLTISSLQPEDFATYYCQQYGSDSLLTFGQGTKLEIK
relative MFI vs isotype control: 12.7

Binder: anti-OX40 antibody 1166/1167 (antibody, V domains shown, Tested as IgG) VH: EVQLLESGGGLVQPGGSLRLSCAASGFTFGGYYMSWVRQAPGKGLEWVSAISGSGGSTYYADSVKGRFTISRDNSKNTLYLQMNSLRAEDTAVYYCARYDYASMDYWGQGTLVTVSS VL: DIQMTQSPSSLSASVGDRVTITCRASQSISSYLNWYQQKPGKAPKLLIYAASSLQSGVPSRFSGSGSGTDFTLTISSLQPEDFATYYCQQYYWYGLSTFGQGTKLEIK
relative MFI vs isotype control: 15.8

Consider anti-OX40 antibody 1170/1171 (antibody, V domains shown, Tested as IgG) VH: EVQLLESGGGLVQPGGSLRLSCAASGFTFGGYYMSWVRQAPGKGLEWVSYIPGSGGSTYYADSVKGRFTISRDNSKNTLYLQMNSLRAEDTAVYYCARYDYYWMDYWGQGTLVTVSS VL: DIQMTQSPSSLSASVGDRVTITCRASQSISSYLNWYQQKPGKAPKLLIYAASSLQSGVPSRFSGSGSGTDFTLTISSLQPEDFATYYCQQGHGSYPHTFGQGTKLEIK . Its measured relative MFI vs isotype control is 20.3
